Quick list: MIC50 per entry.
Tested on: Streptococcus pyogenes
methodSummary: Antibacterial activity against macrolide-resistant Streptococcus pyogenes harboring mef(A) gene after overnight incubation by agar dilution method
Assay type: functional

{"smilesRepr": "CCC[C@@H]1C[C@@H](C(=O)N[C@@H]([C@H]2O[C@H](SC)[C@H](O)[C@@H](O)[C@H]2O)[C@H](C)Cl)N(C)C1", "MIC50 / µg/mL": 0.06}
{"smilesRepr": "CC[C@H]1OC(=O)[C@H](C)[C@@H](O[C@H]2C[C@@](C)(OC)[C@@H](O)[C@H](C)O2)[C@H](C)[C@@H](O[C@@H]2O[C@H](C)C[C@H](N(C)C)[C@H]2O)[C@](C)(O)C[C@@H](C)CN(C)[C@H](C)[C@@H](O)[C@]1(C)O", "MIC50 / µg/mL": 8}
{"smilesRepr": "CC1(C)S[C@@H]2[C@H](NC(=O)Cc3ccccc3)C(=O)N2[C@H]1C(=O)O", "MIC50 / µg/mL": 0.015}
{"smilesRepr": "C[C@H]1COc2c(N3CCN(C)CC3)c(F)cc3c(=O)c(C(=O)O)cn1c23.C[C@H]1COc2c(N3CCN(C)CC3)c(F)cc3c(=O)c(C(=O)O)cn1c23.O", "MIC50 / µg/mL": 0.5}
{"smilesRepr": "CC[C@H]1OC(=O)[C@H](C)C(=O)[C@H](C)[C@@H](O[C@@H]2O[C@H](C)C[C@H](N(C)C)[C@H]2O)[C@](C)(OC)C[C@@H](C)C(=O)[C@H](C)[C@H]2N(CCCCn3cnc(-c4cccnc4)c3)C(=O)O[C@]12C", "MIC50 / µg/mL": 0.5}
{"smilesRepr": "CC[C@H]1OC(=O)[C@H](C)[C@@H](O[C@H]2C[C@@](C)(OC)[C@@H](O)[C@H](C)O2)[C@H](C)[C@@H](O[C@@H]2O[C@H](C)C[C@H](N(C)C)[C@H]2O)[C@](C)(O)C[C@@H](C)C(=O)[C@H](C)[C@@H](O)[C@]1(C)O", "MIC50 / µg/mL": 16}
{"smilesRepr": "CC[C@H]1OC(=O)[C@H](C)[C@@H](O[C@H]2C[C@@](C)(OC)[C@@H](O)[C@H](C)O2)[C@H](C)[C@@H](O[C@@H]2O[C@H](C)C[C@H](N(C)C)[C@H]2O)[C@](C)(OC)C[C@@H](C)C(=O)[C@H](C)[C@@H](O)[C@]1(C)O", "MIC50 / µg/mL": 4}

###

System: Streptococcus pyogenes
methodSummary: Antibacterial activity against macrolide-resistant Streptococcus pyogenes 2094 harboring erm(A) gene after 6 passages and 10 compound-free subculturing by retest method
// reported MIC for each item listed

{"smilesRepr": "CCC[C@@H]1C[C@@H](C(=O)N[C@@H]([C@H]2O[C@H](SC)[C@H](O)[C@@H](O)[C@H]2O)[C@H](C)Cl)N(C)C1", "op": "=", "MIC (mg/L)": 0.06}
{"smilesRepr": "CC[C@H]1OC(=O)[C@H](C)[C@@H](O[C@H]2C[C@@](C)(OC)[C@@H](O)[C@H](C)O2)[C@H](C)[C@@H](O[C@@H]2O[C@H](C)C[C@H](N(C)C)[C@H]2O)[C@](C)(OC)C[C@@H](C)C(=O)[C@H](C)[C@@H](O)[C@]1(C)O", "op": ">", "MIC (mg/L)": 64}
{"smilesRepr": "CC[C@H]1OC(=O)[C@H](C)C(=O)[C@H](C)[C@@H](O[C@@H]2O[C@H](C)C[C@H](N(C)C)[C@H]2O)[C@](C)(OC)C[C@@H](C)C(=O)[C@H](C)[C@H]2N(CCCCn3cnc(-c4cccnc4)c3)C(=O)O[C@]12C", "op": "=", "MIC (mg/L)": 0.03}
{"smilesRepr": "CC[C@H]1OC(=O)[C@H](C)[C@@H](O[C@H]2C[C@@](C)(OC)[C@@H](O)[C@H](C)O2)[C@H](C)[C@@H](O[C@@H]2O[C@H](C)C[C@H](N(C)C)[C@H]2O)[C@](C)(O)C[C@@H](C)CN(C)[C@H](C)[C@@H](O)[C@]1(C)O", "op": ">", "MIC (mg/L)": 64}
{"smilesRepr": "CC[C@H]1OC(=O)[C@@](C)(F)C(=O)[C@H](C)[C@@H](O[C@@H]2O[C@H](C)C[C@H](N(C)C)[C@H]2O)[C@](C)(OC)C[C@@H](C)C(=O)[C@H](C)[C@H]2N(CCCCn3cc(-c4cccc(N)c4)nn3)C(=O)O[C@]12C", "op": "=", "MIC (mg/L)": 0.016}

Values were extracted from ChEMBL document CHEMBL1240350.
